assay: Cmax in human H460 cells expressing K-Ras Q61H mutant xenografted nude mouse at 50 mg/kg, po bid; type: ADME, organism-based; parameters: dose 50 mg/kg, route oral; details: in vivo
Measurement Name: Cmax (ng/mL)
I only need the number, in ng/mL, no unit after it.

# query: Cmax of entry C[C@@H](c1ccccc1)[C@@H](C(=O)Nc1ccc(I)cc1F)N1C(=O)N[C@H](c2ccc(OC[C@H](O)CO)cc2)C1=O
8080

###

assay: AUC (0 to 12 hrs) in human H460 cells expressing K-Ras Q61H mutant xenografted nude mouse at 25 mg/kg, po bid; type: ADME, organism-based; design: time < 12 hr, dose 25 mg/kg, route oral; settings: in vivo
Measurement Name: AUC at 12 h (ng·h/mL)
I only need the number, in ng·h/mL, no unit after it.

# query: AUC at 12 h of entry C[C@@H](c1ccccc1)[C@@H](C(=O)Nc1ccc(I)cc1F)N1C(=O)N[C@H](c2ccc(OC[C@H](O)CO)cc2)C1=O
8800
